test: CRL2098 osteosarcoma cell growth inhibition, synergistic combos for chromothripsis tumors, BGB or cisplatin IC20 combos (AID 1671454); settings: CRL2098 osteosarcoma cells, drug combinations, measured here: combination with BGB at IC20, at 0.5 µM, stronger effect = higher value;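 note: cells exposed for 96 h before readout; 0% = vehicle DMSO and 100% = killing by high DMSO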
valueKind: inhibition (%)
All answers are understood in %, so give the number only.

Past entries and their recorded results:
{"columns": ["molecule", "endpointValue"],
 "data": [
  ["CO[C@H]1/C=C/O[C@@]2(C)Oc3c(C)c(O)c4c(O)c(c(C=NN5CCN(C)CC5)c(O)c4c3C2=O)NC(=O)/C(C)=C\\C=C\\[C@H](C)[C@H](O)[C@@H](C)[C@@H](O)[C@@H](C)[C@H](OC(C)=O)[C@@H]1C", -20.5],
  ["O=c1[nH]c(-c2ccc(C(F)(F)F)cc2)nc2c1CSCC2", -20.7],
  ["O=c1cc(-c2cccc3c2Sc2ccccc2S3)oc(N2CCOCC2)c1", -49.7]
]}

Here is another molecule to look at.
In: Fill in: inhibition of NC(=O)c1ncn(C2OC(CO)C(O)C2O)n1 (centres undefined) is ___
Out: -25.7
